assay: in vivo; settings: Sprague-Dawley, rat, brain, other: CED infusion into the brain, 0.01 mg
Where a name gives a salt, the structure may show the parent alone.
outcome measure: half-life (h)
Only the number, expressed in h, is required.

Answer with the recorded half-life of CC[C@@]1(O)C(=O)OCc2c1cc1n(c2=O)Cc2cc3c(CN(C)C)c(O)ccc3nc2-1 [free Topotecan, Topotecan Hydrochloride] only.
2.4

###

test: Maximum tolerated dose of free and liposomal Topotecan, 3 weekly i.v. injections; details: female, Swiss-Webster, mouse, in vivo, iv
Where a name gives a salt, the structure may show the parent alone.
outcome measure: MTD at 10 days

Answer with the recorded MTD at 10 days of CC[C@@]1(O)C(=O)OCc2c1cc1n(c2=O)Cc2cc3c(CN(C)C)c(O)ccc3nc2-1 [free Topotecan, Topotecan Hydrochloride] only.
11.7 to 21 mg/kg
